B1: CDKL4 (parent)
chain: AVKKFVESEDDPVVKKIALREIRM

# Variants of: B1
# test_details: protein stability index of a GFP-peptide fusion (GPS, HEK-293T) (PSI 1-6); higher = more stable;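 note: lentivirally expressed fusions sorted by FACS into six bins by GFP to DsRed ratio, PSI derived from sequencing read proportions per bin multiplied by bin number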
# protocol_conditions: c terminus: a fixed tail appended
Measured protein stability index by item

| seq | protein stability index |
| --- | --- |
| AVKKFVESEDDPVVKKIAYREIRM [L19Y] | 3.41 |
| AVKKFVESEDDPVVKKIALREGRM [I22G] | 3.66 |
| AVKKFVESEMDPVVKKIALREIRM [D10M] | 2.65 |
| AVKKFVESEDDPVPKKIALREIRM [V14P] | 3.12 |
| AVKKFVESEDDPVVKKKALREIRM [I17K] | 3.87 |
| AVKKPVESEDDPVVKKIALREIRM [F5P] | 4.07 |
| AVKKFVESEDDPVVKKIAQREIRM [L19Q] | 4.22 |
| WVKKFVESEDDPVVKKIALREIRM [A1W] | 2.72 |
| AHKKFVESEDDPVVKKIALREIRM [V2H] | 3.03 |
| AVKKFRESEDDPVVKKIALREIRM [V6R] | 2.48 |
| AVKKFVESEDDPCVKKIALREIRM [V13C] | 2.67 |
| AVKKFVESEDDPVVKKIALHEIRM [R20H] | 2.63 |
| AVKKFAESEDDPVVKKIALREIRM [V6A] | 3.07 |
| AVKKFVESEDDPYVKKIALREIRM [V13Y] | 2.3 |
| AVKKFVEFEDDPVVKKIALREIRM [S8F] | 2.08 |
| AVKKFVGSEDDPVVKKIALREIRM [E7G] | 1.99 |
| AVKKFVESEDPPVVKKIALREIRM [D11P] | 2.81 |
| AMKKFVESEDDPVVKKIALREIRM [V2M] | 2.79 |
| AVKKFVESEDDSVVKKIALREIRM [P12S] | 2.99 |
| AVKKFVESEDDPPVKKIALREIRM [V13P] | 3.29 |
| AVKKFVESEDDPVVKTIALREIRM [K16T] | 3.11 |
| AVKKFVESEDDPVSKKIALREIRM [V14S] | 2.98 |
| AVKKFHESEDDPVVKKIALREIRM [V6H] | 3.08 |
| AVKKFVESEDDPVVTKIALREIRM [K15T] | 2.66 |
| AVKKFVESEDDPVVKKLALREIRM [I17L] | 2.57 |
| AVKKFVESEDDPVVKKIALRSIRM [E21S] | 2.35 |
| AVKKFVESEDDPVVKKIALRWIRM [E21W] | 3.91 |
| AVKKCVESEDDPVVKKIALREIRM [F5C] | 4.34 |
| AVKKFVESEDDPVDKKIALREIRM [V14D] | 3.48 |
| AVKKDVESEDDPVVKKIALREIRM [F5D] | 3.75 |
| AVKKFVESIDDPVVKKIALREIRM [E9I] | 2.51 |
| AVKKFVESEDDPVVKKIALREIRC [M24C] | 2.76 |
| VVKKFVESEDDPVVKKIALREIRM [A1V] | 2.43 |
| AVKKFVESEDVPVVKKIALREIRM [D11V] | 2.44 |
| AVKKFVESEDDPVVKHIALREIRM [K16H] | 3.22 |
| AVKKFVESEDDPVVKKIALRVIRM [E21V] | 2.46 |
| AVKKFDESEDDPVVKKIALREIRM [V6D] | 3.65 |
| AVKKFVESEDDPVVKKINLREIRM [A18N] | 3.35 |
| AIKKFVESEDDPVVKKIALREIRM [V2I] | 2.31 |
| AVKKFVESEDDPVVKKIAGREIRM [L19G] | 4.26 |
| AVKKFVESEDRPVVKKIALREIRM [D11R] | 2.61 |
| KVKKFVESEDDPVVKKIALREIRM [A1K] | 2.91 |
| AVKKFVESEDDPVVKKAALREIRM [I17A] | 3.95 |
| AVAKFVESEDDPVVKKIALREIRM [K3A] | 2.83 |
| AVKKFVESEDDPVVKKIACREIRM [L19C] | 4.26 |
| AVKKFVESEDDPVVKKIALRGIRM [E21G] | 3.24 |
